Measured Phage binding ELISA signal, Anti-PSMA Fab accompanies every entry in the list below.
- EXPERIMENTAL_SYSTEM: T1, PSMA Fab (006 PSMA Fab) (biotinylated (site not stated))
- T1 construct: also called Anti-PSMA Fab
- PROTOCOL_NOTES: clonal phage ELISA on plate-captured biotinylated PSMA Fab, blocking buffer alone, anti-M13 HRP detection
# respond with the number and nothing more

>>> result_value("PYSICKPDWMCTGL [Phage-3840]")
1.22
>>> result_value("PPRACVPSWMCTGF [Phage-3830]")
1.24

## Input Can you look up the measured Phage binding ELISA signal, Anti-PSMA Fab of TSVLCQPLWMCSGF [Phage-3832] for me?
## Output 1.24

## Input Field entry: VDRVCIPTWMCEGI [Phage-3834]
## Output 1.23

## Input Field entry: GMKTCVPAWMCVGF [Phage-3831]
## Output 1.24

## Input Field entry: VGIRCEPAWMCEGF [Phage-3833]
## Output 1.24
